Just for reference, patent US5747463A is where these values come from.

Reported IC50 values are given for each entry in this list.
System: platelet: HL-60 cell adhesion
Test: HL-60 Platelet Cell Adhesion Assay
Format: cell-based
Conditions: 0.5 h; thrombin-activated human platelets: HL-60 5:1, 30 minutes at room temperature; read-out: P-selectin HL-60 Platelets IC50
OUTCOME_MEASURE: IC50 (µM)

CCCCCCCCCCCCC/C=C/[C@@H](OC(=O)c1ccccc1)[C@H](CO[C@H]1O[C@H](CO)[C@H](O)[C@H](OCCCCC(C(=O)O)C(=O)O)[C@H]1O)NC(=O)CCCCCCCCCCCCCCC [Example 12]	22.9
CCCCCCCCCCCCC/C=C/[C@@H](OC(=O)c1ccccc1)[C@H](CO[C@H]1O[C@H](CO)[C@H](O)[C@H](OC(=O)c2ccccc2)[C@H]1OCCC(C(=O)O)C(=O)O)NC(=O)CCCCCCCCCCCCCCC [Example 2]	12
CCCCCCCCCCCCC/C=C/[C@@H](OC(=O)c1ccccc1)[C@H](CO[C@H]1O[C@H](COCCC(C(=O)O)C(=O)O)[C@H](O)[C@H](O)[C@H]1O)NC(=O)CCCCCCCCCCCCCCC [Example 6]	13
CCCCCCCCCCCCC/C=C/[C@@H](OC(=O)c1ccccc1)[C@H](CO[C@@H]1O[C@H](CO)[C@H](O)[C@H](OCCCCC(C(=O)O)C(=O)O)[C@H]1O)NC(=O)CCCCCCCCCCCCCCC [Example 14]	45
CCCCCCCCCCCCC/C=C/[C@@H](OC(=O)c1ccccc1)[C@H](CO[C@H]1O[C@H](CO)[C@H](OCCC(C(=O)O)C(=O)O)[C@H](O)[C@H]1O)NC(=O)CCCCCCCCCCCCCCC [Example 24]	51
CCCCCCCCCCCCC/C=C/[C@@H](OC(=O)c1ccccc1)[C@H](CO[C@H]1O[C@H](CO)[C@H](O)[C@H](OC(=O)c2ccccc2)[C@H]1OCCCCC(C(=O)O)C(=O)O)NC(=O)CCCCCCCCCCCCCCC [Example 4]	19
CCCCCCCCCCCCC/C=C/[C@@H](OC(=O)c1ccccc1)[C@H](CO[C@@H]1O[C@H](CO)[C@H](O)[C@H](OC(=O)c2ccccc2)[C@H]1OCCCCC(C(=O)O)C(=O)O)NC(=O)CCCCCCCCCCCCCCC [Example 18]	8.8

----------
Tested on: rats
Experiment: Reverse Passive Arthus Reaction in Rats (RPA)
Assay type: in vivo, male Sprague Dawley rats
Conditions: single dose of 3 mg IV, rat, 4 hours after BSA
Reported RPA VP % Inhib. (vascular permeability) values are given for each entry in this list.
OUTCOME_MEASURE: RPA VP % Inhib. (vascular permeability) (%)

CCCCCCCCCCCCC/C=C/[C@@H](OC(=O)c1ccccc1)[C@H](CO[C@H]1O[C@H](CO)[C@H](O)[C@H](OC(=O)c2ccccc2)[C@H]1OCCCCC(C(=O)O)C(=O)O)NC(=O)CCCCCCCCCCCCCCC	60
CCCCCCCCCCCCC/C=C/[C@@H](OC(=O)c1ccccc1)[C@H](CO[C@H]1O[C@H](CO)[C@H](O)[C@H](OCCCCC(C(=O)O)C(=O)O)[C@H]1O)NC(=O)CCCCCCCCCCCCCCC	33
CCCCCCCCCCCCC/C=C/[C@@H](OC(=O)c1ccccc1)[C@H](CO[C@@H]1O[C@H](CO)[C@H](O)[C@H](OCCCCC(C(=O)O)C(=O)O)[C@H]1O)NC(=O)CCCCCCCCCCCCCCC	15.5
CCCCCCCCCCCCC/C=C/[C@@H](OC(=O)c1ccccc1)[C@H](CO[C@@H]1O[C@H](CO)[C@H](O)[C@H](OC(=O)c2ccccc2)[C@H]1OCCCCC(C(=O)O)C(=O)O)NC(=O)CCCCCCCCCCCCCCC	4.3
CCCCCCCCCCCCC/C=C/[C@@H](OC(=O)c1ccccc1)[C@H](CO[C@H]1O[C@H](CO)[C@H](OCCC(C(=O)O)C(=O)O)[C@H](O)[C@H]1O)NC(=O)CCCCCCCCCCCCCCC	33.5
CCCCCCCCCCCCC/C=C/[C@@H](OC(=O)c1ccccc1)[C@H](CO[C@H]1O[C@H](CO)[C@H](O)[C@H](OC(=O)c2ccccc2)[C@H]1OCCC(C(=O)O)C(=O)O)NC(=O)CCCCCCCCCCCCCCC	41
